test: clinical; conditions: human, in vivo, iv, t1/2
attributeMeasured: half-life (min)
Record the value in min, omitting the unit from your answer.

Below: 5 molecules and their reported half-life.
N#Cc1ccc2c(c1)CN(S(=O)(=O)c1cccs1)[C@H](Cc1ccccc1)CN2Cc1cnc[nH]1; 96
Nc1ccn(C[C@@H](CO)OCP(=O)(O)O)c(=O)n1.O.O; 156
CC(C)(C)[C@]1(O)CC2OC(=O)CC23C(=O)OC2OC(=O)[C@H](O)C231 (stereo partly drawn) [BILOBALIDE]; 192
CC(C)c1nc(N(C)S(C)(=O)=O)nc(-c2ccc(F)cc2)c1/C=C/[C@@H](O)C[C@@H](O)CC(=O)O; 120
CC(=O)NC[C@H]1CN(c2ccc(N3CCOCC3)c(F)c2)C(=O)O1; 270

Input line: Field request: half-life | item: "CCCCC1=NC2(CCCC2)C(=O)N1Cc1ccc(-c2ccccc2-c2nnn[nH]2)cc1"
Output line: 840

Input line: Looking for the measured half-life of CCCCCN(CCCOC)C(=O)C(CCC(=O)O)NC(=O)c1ccc(Cl)c(Cl)c1 (stereo not drawn) [LOXIGLUMIDE] , can you help?
Output line: 312

Input line: # query: half-life of entry COc1ccc(CCNCC(O)COc2cccc(C)c2)cc1OC (stereo not drawn)
Output line: 114

* * *

assay: clinical; conditions: human, in vivo, iv
attributeMeasured: log10 of MRT (log10 of the value in h)
Base-10 log of MRT, unit h.

Consider the reported log10 of MRT for these compounds:
CCC1=C[C@@H]2CN(C1)Cc1c([nH]c3ccccc13)[C@@](C(=O)OC)(c1cc3c(cc1OC)N(C)[C@H]1[C@@](O)(C(=O)OC)[C@H](OC(C)=O)[C@]4(CC)C=CCN5CC[C@]31[C@@H]54)C2 (stereo in doubt; form 1); 1.23
CN(C)C(=O)Oc1cccc([N+](C)(C)C)c1.[Br-] [NEOSTIGMINE BROMIDE]; 0.11
Cc1cc(=O)n(-c2ccccc2)n1C [ANTIPYRINE]; 1.30
CCCCCNC(=O)c1coc([C@H]2[C@@H](Cc3ccccc3CCC(=O)O)[C@@H]3CC[C@H]2O3)n1; 1.04
CO[C@H]1/C=C/O[C@@]2(C)Oc3c(C)c(O)c4c(c3C2=O)C2=NC3(CCN(CC(C)C)CC3)NC2=C(NC(=O)/C(C)=C\C=C\[C@H](C)[C@H](O)[C@@H](C)[C@@H](O)[C@@H](C)[C@H](OC(C)=O)[C@@H]1C)C4=O; 1.81

Input line: Using the record for "Nc1n[n+]([O-])c2ccccc2[n+]1[O-]" , report its log10 of MRT.
Output line: 0.00

* * *

Examples of compounds with documented Vd follow.
test: clinical; details: human, in vivo, iv, Vdss
# include the unit after the value

CC1(C)S[C@@H]2[C@H](NC(=O)C(c3ccccc3)S(=O)(=O)O)C(=O)N2[C@H]1C(=O)O (stereo not given in full) [SULBENICILLIN]; 0.15 L/kg

Input line: Which Vd is listed for O=C1CN(/N=C/c2ccc(-c3ccc([N+](=O)[O-])cc3)o2)C(O)=N1 [DANTROLENE] ?
Output line: 0.37 L/kg

* * *

Reported Vd values for a set of compounds
experiment: clinical; conditions: human, in vivo, iv, Vdss
The reply should be a number in L/kg, with the unit left off.

Some entries whose results are on file:
CCN(CC)CCNC(=O)c1cc(Cl)c(N)cc1OC [METOCLOPRAMIDE]; 3.2
CCC(C)n1ncn(-c2ccc(N3CCN(c4ccc(OCC5COC(Cn6cncn6)(c6ccc(Cl)cc6Cl)O5)cc4)CC3)cc2)c1=O (centres undefined); 7.4
C=CCN1CC[C@]23c4c5ccc(O)c4O[C@H]2C(=O)CC[C@@]3(O)[C@H]1C5; 1.7

Kindly review the next compound as well.
Input line: Consider the compound shown here: Cc1cc(=O)n(-c2ccccc2)n1C [ANTIPYRINE] What is its recorded Vd?
Output line: 0.77
